# target-entity: full-length beta-Catenin (Uniprot ID P35222) (Homo sapiens, UniProt P35222)
# Construct: 10 nM full-length beta-Catenin (Uniprot ID P35222)
# Sequence (P35222 whole entry): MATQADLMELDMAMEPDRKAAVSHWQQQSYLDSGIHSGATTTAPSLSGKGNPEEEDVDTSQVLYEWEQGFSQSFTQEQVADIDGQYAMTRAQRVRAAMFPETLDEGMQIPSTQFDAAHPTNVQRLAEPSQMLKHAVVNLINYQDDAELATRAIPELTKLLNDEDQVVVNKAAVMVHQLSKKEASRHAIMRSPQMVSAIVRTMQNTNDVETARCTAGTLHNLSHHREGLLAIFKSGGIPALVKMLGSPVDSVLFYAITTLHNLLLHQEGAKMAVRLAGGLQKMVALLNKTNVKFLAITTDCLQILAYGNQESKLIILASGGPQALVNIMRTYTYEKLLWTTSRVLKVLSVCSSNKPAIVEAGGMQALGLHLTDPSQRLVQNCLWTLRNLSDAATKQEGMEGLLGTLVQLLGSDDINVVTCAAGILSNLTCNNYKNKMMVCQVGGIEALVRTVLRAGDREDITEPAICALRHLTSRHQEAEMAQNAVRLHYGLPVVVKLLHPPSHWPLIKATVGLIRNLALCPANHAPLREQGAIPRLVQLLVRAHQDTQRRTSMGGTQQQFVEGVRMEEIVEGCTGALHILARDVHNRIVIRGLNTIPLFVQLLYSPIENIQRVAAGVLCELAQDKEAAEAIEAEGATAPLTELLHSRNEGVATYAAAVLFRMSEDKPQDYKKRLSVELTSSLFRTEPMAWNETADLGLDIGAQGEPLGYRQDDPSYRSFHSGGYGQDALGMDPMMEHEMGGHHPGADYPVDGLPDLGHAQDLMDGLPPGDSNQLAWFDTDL
# run-description: Fluorescence polarization IC50 (beta-catenin / 5FAM-TCF4 10-53 competition)
# Format: binding
# condition-notes: read-out: FP EC50
Each item that follows carries a reported IC50.
measured-property: IC50

# compound, observed
measured = [
    ("CC(=O)N1CCC[C@]12CC=CCCCC1(CCCC=CCCCCCC[C@@](C)(C(=O)N[C@@H](Cc3ccccc3)C(=O)N[C@@H](Cc3csc4ccccc34)C(=O)N[C@H](Cc3c[nH]cn3)C(N)=O)NC(=O)[C@H](CC(N)=O)NC(=O)[C@H](Cc3ccccc3)NC(=O)[C@H](C)NC(=O)[C@H](C)NC(=O)[C@H](CCC(=O)O)NC(=O)[C@H](CC(=O)O)NC1=O)NC(=O)[C@H](CC(C)C)NC(=O)[C@H](CC(=O)O)NC2=O (some centres unmarked) [I-745]", "80 nM"),
    ("CC(=O)N1CCC[C@]12CC=CCCCC1(CCCC=CCCCCCC[C@@](C)(C(=O)N[C@@H](Cc3ccccc3)C(=O)N[C@@H](Cc3csc4ccccc34)C(=O)N[C@@H](CCC(N)=O)C(=O)N[C@@H](C)C(N)=O)NC(=O)[C@H](CC(N)=O)NC(=O)[C@H](Cc3ccccc3)NC(=O)[C@H](C)NC(=O)[C@H](C)NC(=O)[C@H](CCC(=O)O)NC(=O)[C@H](CC(=O)O)NC1=O)NC(=O)[C@H](CC(C)C)NC(=O)[C@H](CC(=O)O)NC2=O (some centres unmarked) [I-729]", "56 nM"),
    ("CC[C@H](C)[C@@H]1NC(=O)[C@H](CC(=O)O)NC(=O)[C@]2(CC=CCCCC3(CCCC=CCCCCCC[C@@](C)(C(=O)N[C@@H](Cc4ccsc4)C(=O)N[C@@H](Cc4csc5ccccc45)C(=O)N[C@@H](CCC(N)=O)C(N)=O)NC(=O)[C@H](CC(N)=O)NC(=O)[C@H](Cc4ccccc4)NC(=O)[C@H](C)NC(=O)[C@H](C)NC(=O)[C@H](CC(=O)O)NC(=O)[C@H](CC(=O)O)NC3=O)NC1=O)CCCN2C(C)=O (some centres unmarked) [I-552]", "15.5 nM"),
    ("CC(=O)N1CCC[C@]12CC=CCCCC1(CCCC=CCCCCOC(=O)N3CC[C@@](C(=O)N[C@@H](Cc4ccccc4)C(=O)N[C@@H](Cc4csc5ccccc45)C(=O)N[C@@H](CCC(N)=O)C(N)=O)(C3)NC(=O)[C@H](CC(N)=O)NC(=O)[C@H](Cc3ccccc3)NC(=O)[C@H](C)NC(=O)[C@H](C)NC(=O)[C@H](CCC(=O)O)NC(=O)[C@H](CC(=O)O)NC1=O)NC(=O)[C@H](C)NC(=O)[C@H](CC(=O)O)NC2=O (some centres unmarked) [I-463]", "92 nM"),
    ("CC(=O)N1CCC[C@]12CC=CCCCC1(CCCC=CCCCCCC[C@@](C)(C(=O)N[C@@H](Cc3ccccc3)C(=O)N[C@@H](Cc3csc4ccccc34)C(=O)N[C@@H](CCC(N)=O)C(N)=O)NC(=O)[C@H](CC(N)=O)NC(=O)[C@H](Cc3ccccc3)NC(=O)[C@H](C)NC(=O)[C@H](C)NC(=O)[C@H](CCC(=O)O)NC(=O)[C@H](CC(=O)O)NC1=O)NC(=O)[C@H](CC1CCCCC1)NC(=O)[C@H](CC(=O)O)NC2=O (some centres unmarked) [I-620]", "35 nM"),
]
